# run-description: Cycloheximide Counterscreen for Small Molecule Inhibitors of Shiga Toxin; further: read at 38.3 µM for the half of the compounds with a filed dose
# recorded-conditions: cell reporter, cycloheximide protein synthesis inhibition counterscreen
Out of some 300,000 compounds screened, about 37,000 (12%) were called active. No stated cut-off is given here; in the data, active means max response mostly above about 13% (no sharp cut-off); inactive means mostly below about 14%. The list comes from a sample in which actives are over-represented; it also holds close analogues and randomly drawn compounds.
Result category, one only: TRUE = active, FALSE = inactive

Some solved cases for reference:
CCOC(=O)C1CCN(S(=O)(=O)c2ccc3c(c2)N(C(C)=O)CCO3)CC1    FALSE
Cc1ccc(O)c(CNc2nc3ccccc3n2C)c1    TRUE
CC(=O)Nc1ccc(C(=O)CSc2nc3ccc(C)cc3[nH]2)cc1    TRUE
Cc1cccc(C(=O)N2CCCN(C(=O)c3cccc(C)c3)CC2)c1    FALSE
COc1ccc(CNC(=O)C2CCN(C(=O)c3ccccc3)CC2)cc1    FALSE

Query :: Please state the recorded outcome for this compound: `COc1cc(C(=O)NCc2nnc(SCC(=O)c3ccc(Cl)cc3)o2)cc(OC)c1OC`
Result :: FALSE

Query :: Recorded test outcome, item CC(C)OC(=O)C(C#N)c1nc2ccccc2nc1N1CCN(Cc2ccccc2)CC1 (centres undefined)
Result :: FALSE

---

# run-description: Cycloheximide Counterscreen for Small Molecule Inhibitors of Shiga Toxin; further: read at 38.3 µM for the half of the compounds with a filed dose
# recorded-conditions: cell reporter, cycloheximide protein synthesis inhibition counterscreen
The campaign covered roughly 300,000 compounds. About 37,000 (12%) were called active. Rule as the data show it: active = max response mostly above about 13% (no sharp cut-off); inactive = mostly below about 14%. What follows is part of a selection rich in actives, with near analogues and random picks from the rest.
Permitted responses: active, inactive

Reference set (3 entries):
CCCc1nnc(NC(=O)c2cccs2)s1    active
CC1CCCN(CCCNC(=O)CN2C(=O)COc3ccc(S(=O)(=O)N4CCOCC4)cc32)C1 (stereo unspecified)    inactive
CCCc1ccc(-c2csc(NC(=O)Cc3cccs3)n2)cc1    active

Query :: What was the test verdict on `S=c1[nH]nc(-c2cc(-c3ccccc3)n[nH]2)n1/N=C/c1c2ccccc2cc2ccccc12` ?
Result :: inactive

Query :: Assay outcome for C#CCOCCOCCOCCNc1nc(N2CCN(C(=O)[C@H](CCC(=O)O)n3cc(C(N)CO)nn3)CC2)nc(N2CCN(C(=O)[C@H](CCCCN)n3cc(C(N)[C@H](C)CC)nn3)CC2)n1 (stereo partly specified) : what was it?
Result :: inactive

Query :: Name the outcome recorded for `CC(=O)Nc1cccc(-c2nc3ccccc3s2)c1C` in the assay.
Result :: active

---

# run-description: Cycloheximide Counterscreen for Small Molecule Inhibitors of Shiga Toxin; further: read at 38.3 µM for the half of the compounds with a filed dose
# recorded-conditions: cell reporter, cycloheximide protein synthesis inhibition counterscreen; hits give high values
Screen size: about 300,000 compounds; about 37,000 (12%) were called active. Only a selection was taken, and actives are over-represented in it overall.
assay-readout: max response (%)
Number in %, nothing else.

NC(=O)c1c(NC(=O)CSc2nnc(-c3ccco3)n2N)sc2c1CCCC2    5.01

Query :: Given the compound `CC(=O)c1ccc(N2CCN(C(=O)CCc3ccccc3)CC2)cc1` , write its reported max response.
Result :: 3.1

---

# run-description: Cycloheximide Counterscreen for Small Molecule Inhibitors of Shiga Toxin; further: read at 38.3 µM for the half of the compounds with a filed dose
# recorded-conditions: cell reporter, cycloheximide protein synthesis inhibition counterscreen; hits give high values
The campaign covered roughly 300,000 compounds. About 37,000 (12%) were called active. The list comes from a sample in which actives are over-represented; it also holds close analogues and randomly drawn compounds.
max response by entry:
Numeric only. Scale: %

Consider the reported max response for these compounds:
COc1cc(CC(=O)N/N=C/c2ccccc2)c([N+](=O)[O-])cc1OC    16.2
COc1ccc2cc(C(=O)C3CCCN(C(=O)c4sc(C)nc4C)C3)ccc2c1 (configuration not stated)    15.7
COc1ccc(/C=C/c2c(-c3cccc(C)c3)oc3ccc(-c4ccc5c(c4)OCO5)cc23)cc1    -3.1
O=C(NCCCN1CCOCC1)c1ccc2c(c1)N(Cc1cccc(F)c1)C(=O)c1ccccc1S2    -7.81
Cc1ccc(N2CC(C(=O)Nc3ccc(S(=O)(=O)N4CCCC4)cc3)CC2=O)cc1C (configuration not stated)    -2.43

Query :: Report max response, nothing else, for this compound: COc1ccc(S(=O)(=O)NC(C)C(=O)N2CCCCCC2)cc1 (configuration not stated)
Result :: -0.827

Query :: For the compound `O=C(CN1CCN(c2ccc(Cl)cc2)CC1)c1ccccc1` , report max response.
Result :: 5.7

---

# run-description: Cycloheximide Counterscreen for Small Molecule Inhibitors of Shiga Toxin; further: read at 38.3 µM for the half of the compounds with a filed dose
# recorded-conditions: cell reporter, cycloheximide protein synthesis inhibition counterscreen; hits give high values
Screen size: about 300,000 compounds; about 37,000 (12%) were called active. The sample as a whole holds a higher share of actives than the screen did.
// reported max response for each item listed
Please state the figure in %; there is no need to write the unit.

Here are 2 molecules together with their reported answers.
CCOC(=O)c1ccccc1NC(=O)CC1Nc2ccccc2NC1=O (stereo not drawn)    -6.08
CCOC(=O)c1cnc(-c2ccccc2)nc1Oc1ccc(C)cc1    -0.445

Query :: Please give measured max response of the following entry: `CCN(CC)CCNCC(=O)Nc1ccc(Oc2ccccc2)cc1`
Result :: -2.52

---

# run-description: Cycloheximide Counterscreen for Small Molecule Inhibitors of Shiga Toxin; further: read at 38.3 µM for the half of the compounds with a filed dose
# recorded-conditions: cell reporter, cycloheximide protein synthesis inhibition counterscreen
Among all 300,000 compounds or so, about 37,000 (12%) were called active. Rule as the data show it: active = max response mostly above about 13% (no sharp cut-off); inactive = mostly below about 14%. Shown is part of a subset that was picked to be rich in actives.
Hi there, use one of these labels in your reply, thanks! 1 (active), 0 (inactive)

Here are 2 molecules together with their reported answers.
COc1ccc(O)c(C(=O)c2cnc3onc(C(C)C)c3c2)c1    1
Cc1ccc(CSc2nsc(C)c2C#N)cc1    1

Query :: Assay outcome for `O=C(COc1nsnc1N1CCOCC1)Nc1ccccc1Cl` : what was it?
Result :: 0

Query :: Test call, this molecule: `O=C(O)c1ccc(-n2nc(-c3ccccc3)c3ccccc3c2=O)cc1`
Result :: 0

Query :: Check the results log: what was the call for `CCOC(=O)CSc1nnc(-c2ccco2)n1C` ?
Result :: 0

Query :: For `CCn1c(CNC(=O)c2cc(OC)c(OC)c(OC)c2)cc2cc(C)ccc21` , which call appears in the assay record?
Result :: 0

Query :: Entry `Cc1ccccc1-n1c(SCC(=O)Nc2cccc3ccccc23)nc(O)cc1=O` : call = ?
Result :: 0

---

# run-description: Cycloheximide Counterscreen for Small Molecule Inhibitors of Shiga Toxin; further: read at 38.3 µM for the half of the compounds with a filed dose
# recorded-conditions: cell reporter, cycloheximide protein synthesis inhibition counterscreen; hits give high values
About 37,000 (12%) of roughly 300,000 compounds were called active. The sample holds actives, similar compounds and a random draw of the others, so the mix is not that of the screen.
assay-readout: max response (%)
Report the value in % with no unit label.

O=C(COc1ccc(-n2cnnn2)cc1)Nc1ccccc1Cl    9.71

Query :: Quote max response reported for `CCc1ccc(/C=C2\SC(N3CCOCC3)=NC2=O)cc1` please.
Result :: 17.2

Query :: Report max response for `Cn1cccc1Cc1nnc(SCC(=O)NCc2ccc3c(c2)OCO3)n1CCc1ccccc1`
Result :: 1.14

Query :: Tell me max response reported for `O=C1OCCN1C(=O)[C@H]1[C@H](c2ccc(Cl)cc2)C(c2cccc(Cl)c2)=NN1c1ccc(Br)cc1`
Result :: 1.68

Query :: Name the recorded max response of the compound listed here: `CC(=O)Nc1ccc(NS(=O)(=O)c2ccc3c(c2)NC(=O)CC(=O)N3)cc1`
Result :: -2.79

---

# run-description: Cycloheximide Counterscreen for Small Molecule Inhibitors of Shiga Toxin; further: read at 38.3 µM for the half of the compounds with a filed dose
# recorded-conditions: cell reporter, cycloheximide protein synthesis inhibition counterscreen; hits give high values
Among all 300,000 compounds or so, about 37,000 (12%) were called active. Shown is part of a subset that was picked to be rich in actives.
assay-readout: max response (%)
Numbers only here, please. The scale is %.

COc1cc(/C=C2/C(=O)NN(c3cccc(Cl)c3)C2=O)cc(Br)c1O    0.32

Query :: Please look at this compound and report its max response: `CCCc1cc(=S)n2c([nH]c3ccccc32)c1C#N`
Result :: 9.34

Query :: # return recorded max response for input CC1CCc2c(sc(NC(=O)c3ccc(Cn4cc(Br)cn4)o3)c2C(N)=O)C1 (stereo not drawn)
Result :: 0.185

---

# run-description: Cycloheximide Counterscreen for Small Molecule Inhibitors of Shiga Toxin; further: read at 38.3 µM for the half of the compounds with a filed dose
# recorded-conditions: cell reporter, cycloheximide protein synthesis inhibition counterscreen; hits give high values
Screen size: about 300,000 compounds; about 37,000 (12%) were called active. Many of the other results were omitted from the sample, so actives are more common in it than they were.
assay-readout: max response (%)
API: value field is a number in %; no unit string.

CCC1S/C(=N/N=C/c2ccco2)NC1=O (stereo not drawn)    0.781
CC1CCN(C(=S)NC(=O)c2ccccc2Br)CC1    3.84

Query :: Tell me its max response given CCOC(=O)c1cccc(NC(=O)CN2C(=O)C3CC=CCC3C2=O)c1 (stereo not drawn) as the entry.
Result :: -0.226
